Tested on: 616215-338-R-J1-PDC complex spheroid viability;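 also: spheroids exposed to compounds for one week before readout; percent viability relative to DMSO vehicle wells taken as 100%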
MEASUREMENT_NOTES: Anticancer human tumor 616215-338-R-J1-PDC patient-derived colon adenocarcinoma cell line growth inhibition [POLQ]
ASSAY_CONDITIONS: second compound 0.0316 µM; first compound 0.1 µM; hits give low values
PROPERTY_NAME: viability, T/C (%)
Quick reminder: number only, in %, skip the unit.

QUERY: For 616215-338-R-J1-PDC complex spheroid viability, provide viability, T/C of Cn1ncnc1[C@H]1c2n[nH]c(=O)c3cc(F)cc(c23)N[C@@H]1c1ccc(F)cc1 + Nc1ccc(C#CCN(C(=O)Cc2ncc(C(F)(F)F)cc2C(F)(F)F)c2ccc(F)cc2)nn1 please.
RESULT: 86.7

New cases:
QUERY: Please state recorded viability, T/C (tested on 616215-338-R-J1-PDC complex spheroid viability) of C#Cc1c(F)ccc2cc(O)cc(-c3ncc4c(N5CC6CCC(C5)N6)nc(OCC56CCCN5CC(F)C6)nc4c3F)c12 (stereo not drawn) + Nc1ccc(C#CCN(C(=O)Cc2ncc(C(F)(F)F)cc2C(F)(F)F)c2ccc(F)cc2)nn1;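 also: spheroids exposed to compounds for one week before readout; percent viability relative to DMSO vehicle wells taken as 100%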
RESULT: 96.2

QUERY: Param readout = viability, T/C; param system = 616215-338-R-J1-PDC complex spheroid viability; param query = CC[C@@]1(O)C(=O)OCc2c1cc1n(c2=O)Cc2cc3c(CN(C)C)c(O)ccc3nc2-1 + Nc1ccc(C#CCN(C(=O)Cc2ncc(C(F)(F)F)cc2C(F)(F)F)c2ccc(F)cc2)nn1 ; response: value;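 also: spheroids exposed to compounds for one week before readout; percent viability relative to DMSO vehicle wells taken as 100%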
RESULT: 32.3
